Numbers sourced from ChEMBL document CHEMBL4414601.

Field: CLH. Provide a value for each of the molecules that follow.
experiment: Clearance in mouse liver microsomes at 0.5 uM measured up to 45 mins in presence of NADPH by HPLC-MS/MS analysis; format: ADME, Microsome
One number for each entry, in mL/min/g.

Known results for molecules:
Cc1cc(Nc2nccc(-c3sc(C4CCNCC4)nc3-c3ccc(F)cc3)n2)ccn1 : 1.62
Fc1ccc(-c2nc(C3CCNCC3)sc2-c2ccnc(Nc3cnccn3)n2)cc1 : 0.72
Fc1ccc(-c2nc(N3CCOCC3)sc2-c2ccnc(Nc3ccc(N4CCNCC4)cc3)n2)cc1 : 0.48
CN1CCC(C(=O)Nc2nc(-c3ccc(F)cc3)c(-c3ccnc(Nc4ccc(N5CCNCC5)cc4)n3)s2)CC1 : 0.48

Shifting focus to the molecule that follows.
Exam item: Which CLH reading was recorded for the molecule Nc1nc(-c2ccc(F)cc2)c(-c2ccnc(Nc3ccc(N4CCNCC4)cc3)n2)s1 ?
Marked response: 1.47
